Data origin: patent US20110002929A1

# ASSAY_TARGET: T1, human RANK-L (human, UniProt O14788 140-317, limits assumed)
# T1 construct: Soluble protein, used coated, biotinylated or labelled in ELISA, AlphaScreen, FMAT and Biacore; also called hRANK-L; soluble human RANK-L
# T1 sequence (looked up): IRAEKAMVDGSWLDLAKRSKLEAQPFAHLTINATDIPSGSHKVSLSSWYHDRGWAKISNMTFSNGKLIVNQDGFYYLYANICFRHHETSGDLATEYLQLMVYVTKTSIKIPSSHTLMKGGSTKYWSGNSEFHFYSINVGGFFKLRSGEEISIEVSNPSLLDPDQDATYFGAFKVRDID
# ASSAY_TEXT: AlphaScreen, biotin-hRANK-L / RANK-huFc beads
MEASUREMENT_KIND: IC50 (nM)
Write the answer as a number in nM, unit excluded.

BINDER	MEASUREMENT_KIND	VALUE_OBSERVED
RANKL13 (VHH, not shown: small tags and cut ends) VHH: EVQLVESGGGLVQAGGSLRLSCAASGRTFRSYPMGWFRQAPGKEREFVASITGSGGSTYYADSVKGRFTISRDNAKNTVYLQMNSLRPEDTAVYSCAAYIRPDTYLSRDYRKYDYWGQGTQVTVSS	IC50	0.12

Query string: Recorded IC50 for RANKL181biv (VHH, Bivalent Nanobody; also called RANKL18-9GS-RANKL18) EVQLVESGGGLVQAGGSLRLSCAASGRTFSRSAMGWFRQAPGKEREFVGFITGSGGTTYYGESVKGRFTISRDNAQNPVYLQMNSLKPEDTAVYYCGVYRRTYISSTYSESSEYDYWGQGTQVTVSSGGGGSGGGSEVQLVESGGGLVQAGGSLRLSCAASGRTFSRSAMGWFRQAPGKEREFVGFITGSGGTTYYGESVKGRFTISRDNAQNPVYLQMNSLKPEDTAVYYCGVYRRTYISSTYSESSEYDYWGQGTQVTVSS , please?
Result string: 0.113
